Taken from paper PMC8979682.

Listed here are compounds together with their documented % inhibitions (α-amylase).
# Tested on: α-amylase
# experimentalDetails: in vitro α-amylase inhibition
# Format: biochemical
# conditions: 250 µg/ml
quantityName: % inhibitions (α-amylase)

- O=C1CCCCC1C1CC(=O)N(c2ccc(Br)cc2)C1=O (stereo not shown): 71.36 ± 1.15^∗∗∗ %
- O=C1CCCCC1C1CC(=O)N(Cc2ccccc2)C1=O (stereo not shown): 73.14 ± 0.49^∗∗∗ %
- C[C@H]1O[C@H](O[C@H]2[C@H](O)[C@@H](O)[C@@H](O[C@H]3[C@H](O)[C@@H](O)C(O)O[C@@H]3CO)O[C@@H]2CO)[C@H](O)[C@@H](O)[C@@H]1N[C@H]1C=C(CO)[C@@H](O)[C@H](O)[C@H]1O (stereo partly shown) [Acarbose, reference compound]: 82.47 ± 0.71%
- O=C1CCCCC1C1CC(=O)N(c2ccccc2)C1=O (stereo not shown): 75.32 ± 0.40^∗∗∗ %

* * *

# Tested on: α-glucosidase
# experimentalDetails: in vitro α-glucosidase inhibition
# Format: biochemical
# conditions: 125 µg/ml
Parameter % inhibitions (α-glucosidase): see the listing below.
quantityName: % inhibitions (α-glucosidase)

* O=C1CCCCC1C1CC(=O)N(c2ccc(Br)cc2)C1=O (stereo not shown) [BW3] | 67.90 ± 0.96^∗∗∗ %
* O=C1CCCCC1C1CC(=O)N(Cc2ccccc2)C1=O (stereo not shown) [BW2] | 74.39 ± 0.49^∗∗∗ %
* O=C1CCCCC1C1CC(=O)N(c2ccccc2)C1=O (stereo not shown) [BW1] | 76.58 ± 0.63^ns %
* C[C@H]1O[C@H](O[C@H]2[C@H](O)[C@@H](O)[C@@H](O[C@H]3[C@H](O)[C@@H](O)C(O)O[C@@H]3CO)O[C@@H]2CO)[C@H](O)[C@@H](O)[C@@H]1N[C@H]1C=C(CO)[C@@H](O)[C@H](O)[C@H]1O (stereo partly shown) [Acarbose, reference compound] | 80.90 ± 0.60%

* * *

% inhibitions (α-amylase) listing for selected molecules.
# Test system: α-amylase
# experimentalDetails: in vitro α-amylase inhibition
# Type: biochemical
# conditions: 500 µg/ml
quantityName: % inhibitions (α-amylase)

- O=C1CCCCC1C1CC(=O)N(c2ccc(Br)cc2)C1=O (stereo not shown) [BW3]: 75.35 ± 0.89^∗∗∗ %
- O=C1CCCCC1C1CC(=O)N(c2ccccc2)C1=O (stereo not shown) [BW1]: 81.60 ± 0.00^∗∗∗ %
- O=C1CCCCC1C1CC(=O)N(Cc2ccccc2)C1=O (stereo not shown) [BW2]: 78.69 ± 0.14^∗∗∗ %
- C[C@H]1O[C@H](O[C@H]2[C@H](O)[C@@H](O)[C@@H](O[C@H]3[C@H](O)[C@@H](O)C(O)O[C@@H]3CO)O[C@@H]2CO)[C@H](O)[C@@H](O)[C@@H]1N[C@H]1C=C(CO)[C@@H](O)[C@H](O)[C@H]1O (stereo partly shown) [Acarbose, reference compound]: 87.75 ± 0.42%

* * *

Listed here are compounds together with their documented OGTT blood glucose, 60 minutes.
# Test system: mice
# experimentalDetails: oral glucose tolerance test (OGTT)
# Format: in vivo
# conditions: glucose 2 g/kg orally, 60 minutes
# Method: To perform OGTT mice fasted overnight were used including both control and treated mice. Glucose was administered orally at the dose of 2 g/kg against glibenclamide as standard drug. After administration of glucose, blood glucose level was calculated at time intervals of 0, 30, 60, and 120 min for assessment of the impact of exogenously given D-glucose on treated mice. OGTT was carried out 5 days before the completion of the study. […]
quantityName: OGTT blood glucose, 60 minutes (mg/dL)

* COc1ccc(Cl)cc1C(=O)NCCc1ccc(S(=O)(=O)NC(=O)NC2CCCCC2)cc1 [Glibenclamide, reference compound] | 214.3
* O=C1CCCCC1C1CC(=O)N(c2ccccc2)C1=O (stereo not shown) | 211.8
* O=C1CCCCC1C1CC(=O)N(Cc2ccccc2)C1=O (stereo not shown) | 214.8
* O=C1CCCCC1C1CC(=O)N(c2ccc(Br)cc2)C1=O (stereo not shown) | 196.3
